The reported numbers originate from ChEMBL document CHEMBL5291721.

Consider the following molecules; for each one, report its AC50.
Target of assay: Glucocorticoid receptor (Homo sapiens); note: assay procedure not described here
Sequence (P04150 whole entry): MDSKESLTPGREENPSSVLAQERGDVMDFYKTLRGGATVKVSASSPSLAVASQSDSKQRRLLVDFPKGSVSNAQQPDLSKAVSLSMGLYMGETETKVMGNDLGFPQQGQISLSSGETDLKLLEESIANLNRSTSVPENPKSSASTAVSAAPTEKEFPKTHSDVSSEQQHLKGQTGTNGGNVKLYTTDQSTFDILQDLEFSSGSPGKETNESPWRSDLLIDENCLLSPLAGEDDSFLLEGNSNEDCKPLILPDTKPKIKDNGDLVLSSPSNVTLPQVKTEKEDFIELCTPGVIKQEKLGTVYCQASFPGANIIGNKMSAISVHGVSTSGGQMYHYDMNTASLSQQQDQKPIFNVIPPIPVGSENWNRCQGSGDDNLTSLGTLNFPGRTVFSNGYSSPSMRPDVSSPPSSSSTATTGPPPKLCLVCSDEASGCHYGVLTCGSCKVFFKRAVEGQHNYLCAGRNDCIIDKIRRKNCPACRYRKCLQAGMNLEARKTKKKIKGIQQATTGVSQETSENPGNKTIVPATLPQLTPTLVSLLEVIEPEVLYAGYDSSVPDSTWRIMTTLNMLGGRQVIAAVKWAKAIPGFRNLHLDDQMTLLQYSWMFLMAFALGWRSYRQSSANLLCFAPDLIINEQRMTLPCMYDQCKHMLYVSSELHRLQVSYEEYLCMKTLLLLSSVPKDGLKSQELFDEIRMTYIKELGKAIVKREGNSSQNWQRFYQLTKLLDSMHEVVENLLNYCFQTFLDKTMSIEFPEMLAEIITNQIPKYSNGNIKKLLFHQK

1. Cc1ccnc2c1NC(=O)c1cccnc1N2C1CC1 [NEVIRAPINE] ... > 30 µM
2. C[N+]12CCC(CC1)C(OC(=O)C(O)(c1ccccc1)c1ccccc1)C2 (centres undefined) ... > 30 µM
3. O=C(c1cc(Cc2n[nH]c(=O)c3ccccc23)ccc1F)N1CCN(C(=O)C2CC2)CC1 [OLAPARIB] ... > 30 µM

Could you tell me AC50 for each of these molecules? They are listed below.
1. O=C1Cc2cc(CCN3CCN(c4nsc5ccccc45)CC3)c(Cl)cc2N1 [ZIPRASIDONE]
2. CC(C)(O/N=C(\C(=O)N[C@@H]1C(=O)N2C(C(=O)[O-])=C(C[n+]3ccccc3)CS[C@H]12)c1csc(N)n1)C(=O)O [CEFTAZIDIME]

Response line:
["> 30 µM", "> 30 µM"]

Could you tell me AC50 for each of these molecules? They are listed below.
1. CCCCOc1ccc(C(=O)CCN2CCCCC2)cc1 [DYCLONINE]
2. O=C(O)c1cccnc1Nc1cccc(C(F)(F)F)c1 [NIFLUMIC ACID]
3. CC(=O)c1ccc(S(=O)(=O)NC(=O)NC2CCCCC2)cc1 [ACETOHEXAMIDE]
4. O=S1(=O)CCN(CN2CCS(=O)(=O)NC2)CN1 [TAUROLIDINE]

Response line:
["> 30 µM", "> 10 µM", "> 10 µM", "> 10 µM"]

---

Target of assay: Amine oxidase [flavin-containing] A (Homo sapiens); note: assay procedure not described here
Sequence (P21397 whole entry): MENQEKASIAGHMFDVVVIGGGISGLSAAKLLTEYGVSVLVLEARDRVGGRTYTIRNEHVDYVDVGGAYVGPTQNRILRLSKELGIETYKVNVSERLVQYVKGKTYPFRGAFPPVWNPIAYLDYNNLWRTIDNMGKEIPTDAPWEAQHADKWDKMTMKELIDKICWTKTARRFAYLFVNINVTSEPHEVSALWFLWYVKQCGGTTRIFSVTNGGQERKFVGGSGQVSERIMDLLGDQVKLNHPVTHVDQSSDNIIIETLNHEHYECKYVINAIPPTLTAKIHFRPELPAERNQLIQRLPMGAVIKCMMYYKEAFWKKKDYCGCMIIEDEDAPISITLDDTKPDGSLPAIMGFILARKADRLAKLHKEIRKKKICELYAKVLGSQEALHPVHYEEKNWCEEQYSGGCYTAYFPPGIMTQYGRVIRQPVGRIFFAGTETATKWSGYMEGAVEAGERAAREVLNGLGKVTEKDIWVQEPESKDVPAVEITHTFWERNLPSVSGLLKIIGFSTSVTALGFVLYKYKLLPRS
Format: functional
Value type: AC50

Before answering, review these 7 worked examples.
1) c1ccc(C2(N3CCCCC3)CCCCC2)cc1 ... > 30 µM
2) C=C1c2cccc(O)c2C(=O)C2=C(O)[C@]3(O)C(=O)C(C(N)=O)=C(O)[C@@H](N(C)C)[C@@H]3[C@@H](O)[C@H]12 ... > 10 µM
3) NC[C@H]1CC[C@H](C(=O)Oc2ccc(CCC(=O)O)cc2)CC1 [CETRAXATE] ... > 30 µM
4) COc1cc2[nH]c(C)c(CCN3CCN(c4ccccc4)CC3)c2cc1OC ... > 30 µM
5) O=C(O)c1cccnc1Nc1cccc(C(F)(F)F)c1 ... > 10 µM
6) CN(CCOc1ccc(CC2SC(=O)NC2=O)cc1)c1ccccn1 (stereo not drawn) ... 8 µM
7) CC(=O)O[C@]1(C(C)=O)CC[C@H]2[C@@H]3C=C(Cl)C4=CC(=O)[C@@H]5C[C@@H]5[C@]4(C)[C@H]3CC[C@@]21C [CYPROTERONE ACETATE] ... > 10 µM

In the following, a different compound is considered.
Prompt line: Which AC50 reading was recorded for the compound COc1ccc(CN2CCN(C(c3ccc(F)cc3)c3ccc(F)cc3)CC2)c(OC)c1OC ?
Response line: > 30 µM

---

Reported AC50 for target or system 5-hydroxytryptamine receptor 2B (Homo sapiens, UniProt P41595), by entry. Note: assay procedure not described here.

Before answering, review these 10 worked examples.
1) CCCN1CC(NS(=O)(=O)N(CC)CC)CC2Cc3c(O)cccc3CC21 (stereo not drawn) [QUINAGOLIDE] ... 0.324 µM
2) Cc1ccnc2c1NC(=O)c1cccnc1N2C1CC1 [NEVIRAPINE] ... > 10 µM
3) O=C(/C=C/c1cccc(S(=O)(=O)Nc2ccccc2)c1)NO [BELINOSTAT] ... > 10 µM
4) NNC(=O)c1ccncc1 [ISONIAZID] ... > 10 µM
5) CCCCOc1ccc(C(=O)CCN2CCCCC2)cc1 [DYCLONINE] ... > 10 µM
6) O=C1Nc2ccc(Cl)cc2C(c2ccccc2Cl)=NC1O (stereo not drawn) [LORAZEPAM] ... > 10 µM
7) O=c1c(O)c(-c2ccc(O)c(O)c2)oc2cc(O)cc(O)c12 [QUERCETIN] ... 19.4 µM
8) CN(C)CCCN1c2ccccc2CCc2ccccc21 [IMIPRAMINE] ... 0.319 µM
9) CC(=O)O[C@]1(C(C)=O)CC[C@H]2[C@@H]3C=C(Cl)C4=CC(=O)[C@@H]5C[C@@H]5[C@]4(C)[C@H]3CC[C@@]21C [CYPROTERONE ACETATE] ... > 10 µM
10) Cc1ccc(C)c(OCCCC(C)(C)C(=O)O)c1 [GEMFIBROZIL] ... > 10 µM

Could you tell me AC50 for each of these compounds? They are listed below.
1. CCC(=O)O[C@](Cc1ccccc1)(c1ccccc1)[C@H](C)CN(C)C [PROPOXYPHENE]
2. CCc1nc(N)nc(N)c1-c1ccc(Cl)cc1 [PYRIMETHAMINE]
3. CCOc1nc2cccc(C(=O)O)c2n1Cc1ccc(-c2ccccc2-c2nnn[nH]2)cc1

Response line:
> 10 µM
> 10 µM
> 10 µM
